Target or test system: JAK1 (Homo sapiens)
Construct: made in house; host or cells: SF9 insect cells (baculovirus)
Procedure details: JAK1 inhibition (Table 4)
Type: biochemical
Cond: read-out: JAK1 Ki
pKi: −log10 of the molar value.

[
  {
    "Compound": "OCc1nc2cnc3[nH]ccc3c2n1C1CCN(CC(F)F)CC1",
    "pKi": 8.72
  },
  {
    "Compound": "CC(=O)N1CCC(N[C@H]2CC[C@H](n3cnc4cnc5[nH]ccc5c43)CC2)CC1",
    "pKi": 7.48
  },
  {
    "Compound": "CC(=O)NCc1nc2cnc3[nH]ccc3c2n1C1CCN(CCF)CC1",
    "pKi": 7.88
  },
  {
    "Compound": "CC(C)(C)OC(=O)N1CCCC[C@@H]1CN[C@H]1CC[C@H](n2cnc3cnc4[nH]ccc4c32)CC1",
    "pKi": 7.04
  },
  {
    "Compound": "Cc1nc2cnc3[nH]ccc3c2n1[C@@H]1CCC[C@](C)(O)C1",
    "pKi": 7.42
  },
  {
    "Compound": "N#CCCN1CCC(n2c(C3CCOCC3)nc3cnc4[nH]ccc4c32)CC1",
    "pKi": 7.29
  },
  {
    "Compound": "N#Cc1cc(CN2CCC(n3cnc4cnc5[nH]ccc5c43)CC2)ccn1",
    "pKi": 8.86
  },
  {
    "Compound": "N#CCCN1CCC(n2c(C3CCC3)nc3cnc4[nH]ccc4c32)CC1",
    "pKi": 8.32
  },
  {
    "Compound": "O=C(Cc1nc2cnc3[nH]ccc3c2n1C1CCCOC1)N1CCC1 (racemic)",
    "pKi": 6.88
  },
  {
    "Compound": "N#CCCN1CCC(n2c(CC(N)=O)nc3cnc4[nH]ccc4c32)CC1",
    "pKi": 8.27
  },
  {
    "Compound": "O=S1(=O)CCCN1CCc1nc2cnc3[nH]ccc3c2n1C1CCCCC1",
    "pKi": 7.88
  },
  {
    "Compound": "N#Cc1ccc(CC(=O)N2CC[C@@H](n3cnc4cnc5[nH]ccc5c43)C2)cc1",
    "pKi": 7.43
  },
  {
    "Compound": "COC1CNCCC1n1cnc2cnc3[nH]ccc3c21 (racemic)",
    "pKi": 7.60
  },
  {
    "Compound": "O=C(CN1CCOCC1)N1CCC(n2cnc3cnc4[nH]ccc4c32)CC1",
    "pKi": 7.19
  },
  {
    "Compound": "Cc1nc2cnc3[nH]ccc3c2n1C1CCC(NC(=O)N2CC(F)(F)C2)CC1 (stereo not drawn)",
    "pKi": 7.97
  },
  {
    "Compound": "C[C@@H](O)c1nc2cnc3[nH]ccc3c2n1[C@H]1CCN(CCC#N)C1",
    "pKi": 8.31
  },
  {
    "Compound": "Cc1nc2cnc3[nH]ccc3c2n1[C@@H]1CC[C@@H](NCC(F)(F)F)C1",
    "pKi": 8.18
  },
  {
    "Compound": "C[C@H](O)c1nc2cnc3[nH]ccc3c2n1[C@@H]1CCCN(C(=O)Cn2ccnc2)C1",
    "pKi": 6.42
  }
]

* * *

Target or test system: JAK3 (Homo sapiens, UniProt P52333)
Construct: made in house; host or cells: SF9 insect cells (baculovirus)
Sequence (P52333 783-1124): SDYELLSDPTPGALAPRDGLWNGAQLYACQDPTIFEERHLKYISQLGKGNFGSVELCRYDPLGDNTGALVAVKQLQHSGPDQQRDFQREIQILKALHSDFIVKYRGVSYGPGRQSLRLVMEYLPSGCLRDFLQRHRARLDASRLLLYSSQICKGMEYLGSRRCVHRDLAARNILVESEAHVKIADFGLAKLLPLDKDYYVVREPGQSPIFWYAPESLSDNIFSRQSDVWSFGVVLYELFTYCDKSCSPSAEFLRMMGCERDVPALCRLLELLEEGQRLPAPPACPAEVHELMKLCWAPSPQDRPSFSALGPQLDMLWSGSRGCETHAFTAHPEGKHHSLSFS
Procedure details: JAK3 inhibition (Table 4)
Assay type: biochemical
Cond: read-out: JAK3 Ki
pKi: −log10 of the molar value.
Measure name: pKi

[
  {
    "Molecule": "Cc1nc2cnc3[nH]ccc3c2n1C1CCc2cn[nH]c2C1 (racemic)",
    "Value measured": 7.06
  },
  {
    "Molecule": "N#CCC[C@H]1CC[C@H](n2c(CO)nc3cnc4[nH]ccc4c32)CC1",
    "Value measured": 8.04
  },
  {
    "Molecule": "CC(C)(C)OC(=O)N1CCC(n2cnc3cnc4[nH]ccc4c32)CC1",
    "Value measured": 6.07
  },
  {
    "Molecule": "Cc1n[nH]c(C)c1CCc1nc2cnc3[nH]ccc3c2n1C1CCOCC1",
    "Value measured": 6.14
  },
  {
    "Molecule": "N#CCCN1CCC(n2c(CC3CCCC3)nc3cnc4[nH]ccc4c32)CC1",
    "Value measured": 7.24
  },
  {
    "Molecule": "O=C(O)[C@H]1C[C@@H](n2cnc3cnc4[nH]ccc4c32)C1",
    "Value measured": 6.49
  },
  {
    "Molecule": "c1ccc(CN2CCC(n3c(C4CNC4)nc4cnc5[nH]ccc5c43)CC2)cc1",
    "Value measured": 7.33
  },
  {
    "Molecule": "CC(C)CC(=O)NCCc1nc2cnc3[nH]ccc3c2n1C1CCN(CCC#N)CC1",
    "Value measured": 7.21
  },
  {
    "Molecule": "CC1(C)CC1C(=O)N1CCC[C@@H](n2cnc3cnc4[nH]ccc4c32)C1 (stereo partly drawn)",
    "Value measured": 7.11
  },
  {
    "Molecule": "O=C(N[C@H]1CC[C@H](n2cnc3cnc4[nH]ccc4c32)CC1)OC1CCNCC1",
    "Value measured": 6.41
  },
  {
    "Molecule": "CS(=O)(=O)CC[C@H]1CC[C@H](n2c(CO)nc3cnc4[nH]ccc4c32)CC1",
    "Value measured": 7.41
  },
  {
    "Molecule": "O=C1CCCN1CCc1nc2cnc3[nH]ccc3c2n1C1CCCCC1",
    "Value measured": 7.11
  },
  {
    "Molecule": "c1ccc(CN2CCC(n3c(CN4CCOCC4)nc4cnc5[nH]ccc5c43)CC2)cc1",
    "Value measured": 6.52
  },
  {
    "Molecule": "Cc1nc2cnc3[nH]ccc3c2n1C1CCC(NC(=O)OC(C)(C)C)C1 (racemic)",
    "Value measured": 7.63
  },
  {
    "Molecule": "N#CCCN1CCC(n2nnc3cnc4[nH]ccc4c32)CC1",
    "Value measured": 7.27
  },
  {
    "Molecule": "Cc1nc2cnc3[nH]ccc3c2n1C1CCC(N2CCC(F)(F)CC2)CC1 (stereo not drawn)",
    "Value measured": 6.81
  },
  {
    "Molecule": "OC[C@H]1CC[C@H](n2cnc3cnc4[nH]ccc4c32)CC1",
    "Value measured": 7.71
  },
  {
    "Molecule": "C[C@@H](O)c1nc2cnc3[nH]ccc3c2n1[C@@H]1CCCN(C(=O)C2CCCC2)C1",
    "Value measured": 6.07
  }
]

* * *

Target or test system: JAK1 (Homo sapiens, UniProt P23458)
Construct: made in house; host or cells: SF9 insect cells (baculovirus)
Sequence (P23458 852-1154): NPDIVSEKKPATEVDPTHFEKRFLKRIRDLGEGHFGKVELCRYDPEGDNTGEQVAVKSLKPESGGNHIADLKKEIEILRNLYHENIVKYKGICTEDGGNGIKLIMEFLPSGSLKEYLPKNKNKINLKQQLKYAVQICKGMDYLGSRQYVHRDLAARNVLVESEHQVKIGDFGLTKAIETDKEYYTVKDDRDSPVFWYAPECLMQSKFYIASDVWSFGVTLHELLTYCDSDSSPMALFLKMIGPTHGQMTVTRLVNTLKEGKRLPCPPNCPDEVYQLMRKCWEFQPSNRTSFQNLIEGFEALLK
Procedure details: JAK1 inhibition (Table 4)
Assay type: biochemical
Cond: read-out: JAK1 Ki
pKi: −log10 of the molar value. Where a name gives a salt, the structure may show the parent alone.
Measure name: pKi

[
  {
    "Molecule": "CS(=O)(=O)NCCc1nc2cnc3[nH]ccc3c2n1C1CCN(CCC#N)CC1",
    "Value measured": 8.71
  },
  {
    "Molecule": "Cc1cc(CN2CCC(n3c([C@@H](C)O)nc4cnc5[nH]ccc5c43)CC2)n(C)n1",
    "Value measured": 7.75
  },
  {
    "Molecule": "Cc1nc2cnc3[nH]ccc3c2n1C1(C)CCN(S(C)(=O)=O)CC1",
    "Value measured": 8.84
  },
  {
    "Molecule": "Cc1nc2cnc3[nH]ccc3c2n1[C@H]1CC[C@H](OC(=O)N(C)C)CC1",
    "Value measured": 7.82
  },
  {
    "Molecule": "O=C(Cc1ccccc1)N1CCC(n2cnc3cnc4[nH]ccc4c32)CC1",
    "Value measured": 8.07
  },
  {
    "Molecule": "NC1CCCC(n2cnc3cnc4[nH]ccc4c32)C1 (single isomer, unassigned) [Example 366]",
    "Value measured": 7.34
  },
  {
    "Molecule": "Cc1nc2cnc3[nH]ccc3c2n1C1CCN(C(=O)NCCC(F)(F)F)CC1",
    "Value measured": 6.56
  },
  {
    "Molecule": "CS(=O)(=O)NCc1nc2cnc3[nH]ccc3c2n1C1CC2CCC1O2 (single isomer, unassigned) [Example 850]",
    "Value measured": 7.22
  },
  {
    "Molecule": "O=C(NC1CCC(n2cnc3cnc4[nH]ccc4c32)CC1)N1CCC1 (centres unmarked)",
    "Value measured": 7.88
  },
  {
    "Molecule": "Cc1nc2cnc3[nH]ccc3c2n1C1CCN(Cc2ccccc2)CC1C (racemic) [Example 151, dihydrochloride salt]",
    "Value measured": 8.75
  },
  {
    "Molecule": "CC(=O)NCCc1nc2cnc3[nH]ccc3c2n1C1CCCCC1",
    "Value measured": 8.61
  },
  {
    "Molecule": "CC1(C(=O)N2CCC[C@@H](n3cnc4cnc5[nH]ccc5c43)C2)CC1",
    "Value measured": 8.19
  },
  {
    "Molecule": "c1cncc(CN2CCC[C@@H](n3cnc4cnc5[nH]ccc5c43)C2)c1",
    "Value measured": 7.45
  },
  {
    "Molecule": "CCN1CC[C@@H](n2c(CCNS(=O)(=O)C3CC3)nc3cnc4[nH]ccc4c32)[C@@H](F)C1",
    "Value measured": 8.25
  },
  {
    "Molecule": "O=S(=O)(Cc1ccccc1)N1CCC(n2cnc3cnc4[nH]ccc4c32)CC1",
    "Value measured": 8.46
  },
  {
    "Molecule": "CC1(n2nnc3cnc4[nH]ccc4c32)CCN(S(C)(=O)=O)CC1",
    "Value measured": 8.36
  },
  {
    "Molecule": "CC(=O)N(C)CCc1nc2cnc3[nH]ccc3c2n1C1CCCCC1",
    "Value measured": 8.11
  }
]
